This collection of values is drawn from paper PMC8778818.

For each entry below, report its Growth of Cells (%) value.
system: BT-549; test: NCI-60 screen, Breast Cancer BT-549; type: cell-based, human; conditions: BT-549, 10^−5 M one dose
Give bare numbers, in %.

Fc1ccc(CNc2nc(C(F)(F)F)nc3c2sc(=S)n3-c2ccccc2)cc1	98.87

Items follow; give Growth of Cells (%) for each.
1. O=c1[nH]c(C(F)(F)F)nc2c1sc(=S)n2-c1ccccc1
2. FC(F)(F)c1nc(Cl)c2sc(=S)n(-c3ccccc3)c2n1

[130.31, 73.90]

Returns the measured Growth of Cells (%) for the input compound. Input: CCNc1nc(C(F)(F)F)nc2c1sc(=S)n2-c1ccccc1
95.21

----------
system: OVCAR-5; assay: NCI-60 screen, Ovarian Cancer OVCAR-5; type: cell-based, human; details: OVCAR-5, 10^−5 M one dose
For each entry below, report its Growth of Cells (%) value.
# number then unit; no other words

CCNc1nc(C(F)(F)F)nc2c1sc(=S)n2-c1ccccc1 [Compound 4b]	112.27%

Items follow; give Growth of Cells (%) for each.
1. Fc1ccc(CNc2nc(C(F)(F)F)nc3c2sc(=S)n3-c2ccccc2)cc1 [Compound 4c]
2. O=c1[nH]c(C(F)(F)F)nc2c1sc(=S)n2-c1ccccc1 [Compound 2b]
3. FC(F)(F)c1nc(Cl)c2sc(=S)n(-c3ccccc3)c2n1 [Compound 3b]

["102.72%", "101.99%", "86.56%"]

----------
For each entry below, report its Growth of Cells (%) value.
system: KM12; experiment: NCI-60 screen, Colon Cancer KM12; type: cell-based, human; settings: KM12, 10^−5 M one dose
Give bare numbers, in %.

Some compounds with known Growth of Cells (%) results, for comparison:
FC(F)(F)c1nc(Cl)c2sc(=S)n(-c3ccccc3)c2n1	90.93
O=c1[nH]c(C(F)(F)F)nc2c1sc(=S)n2-c1ccccc1	100.96
Fc1ccc(CNc2nc(C(F)(F)F)nc3c2sc(=S)n3-c2ccccc2)cc1	113.23

Returns the measured Growth of Cells (%) for the input compound. Input: CCNc1nc(C(F)(F)F)nc2c1sc(=S)n2-c1ccccc1
89.17

----------
tested on: SW620; test: NCI-60 screen, Colon Cancer SW620; type: cell-based, human; details: SW620, 10^−5 M one dose
propertyMeasured: Growth of Cells (%)
One number for each entry, in %.

Fc1ccc(CNc2nc(C(F)(F)F)nc3c2sc(=S)n3-c2ccccc2)cc1	114.74
CCNc1nc(C(F)(F)F)nc2c1sc(=S)n2-c1ccccc1	106.24
O=c1[nH]c(C(F)(F)F)nc2c1sc(=S)n2-c1ccccc1	95.09

Returns the measured Growth of Cells (%) for the input compound. Input: FC(F)(F)c1nc(Cl)c2sc(=S)n(-c3ccccc3)c2n1
−63.05

----------
For each entry below, report its Growth of Cells (%) value.
system: MDA-MB-435; assay: NCI-60 screen, Melanoma MDA-MB-435; type: cell-based, human; details: MDA-MB-435, 10^−5 M one dose
Numbers only, in %.

Some compounds with known Growth of Cells (%) results, for comparison:
CCNc1nc(C(F)(F)F)nc2c1sc(=S)n2-c1ccccc1 [Compound 4b]	112.84
FC(F)(F)c1nc(Cl)c2sc(=S)n(-c3ccccc3)c2n1 [Compound 3b]	6.26
O=c1[nH]c(C(F)(F)F)nc2c1sc(=S)n2-c1ccccc1 [Compound 2b]	114.64

Query compound follows.
Returns the measured Growth of Cells (%) for the input compound. Input: Fc1ccc(CNc2nc(C(F)(F)F)nc3c2sc(=S)n3-c2ccccc2)cc1 [Compound 4c]
102.86
